- Target System: human PR (Homo sapiens, UniProt P06401)
- Assay Explanation: Cotransfection assay, PR agonist, CV-1 cells
- Type: cell-based
- Recorded Conditions: CV-1 cells; percent maximal response relative to reference agonist
Measurement Label: PR Agonist CV-1 Cells Efficacy (%)
Answer format: numeric, % implied, no suffix.

input: Looking for the measured PR Agonist CV-1 Cells Efficacy of `CC1(C)OC(=O)Nc2ccc3c(c21)COc1c(F)cc(C=NO)cc1-3` , can you help?
output: 46

input: Looking for the measured PR Agonist CV-1 Cells Efficacy of `CC1(C)OC(=O)Nc2ccc3c(c21)COc1c(F)cc(C#N)cc1-3` , can you help?
output: 60

input: Looking for the measured PR Agonist CV-1 Cells Efficacy of `CC1(C)OC(=O)Nc2ccc3c(c21)COc1c(F)cccc1-3` , can you help?
output: 30

input: Looking for the measured PR Agonist CV-1 Cells Efficacy of `CC1(C)OC(=O)Nc2ccc3c(c21)COc1c(F)cc(Br)cc1-3` , can you help?
output: 30

----------
Kindly supply the reported pEC50 values for the records listed here.
- Target System: hER (Homo sapiens, UniProt P03372)
- Sequence (P03372 whole entry): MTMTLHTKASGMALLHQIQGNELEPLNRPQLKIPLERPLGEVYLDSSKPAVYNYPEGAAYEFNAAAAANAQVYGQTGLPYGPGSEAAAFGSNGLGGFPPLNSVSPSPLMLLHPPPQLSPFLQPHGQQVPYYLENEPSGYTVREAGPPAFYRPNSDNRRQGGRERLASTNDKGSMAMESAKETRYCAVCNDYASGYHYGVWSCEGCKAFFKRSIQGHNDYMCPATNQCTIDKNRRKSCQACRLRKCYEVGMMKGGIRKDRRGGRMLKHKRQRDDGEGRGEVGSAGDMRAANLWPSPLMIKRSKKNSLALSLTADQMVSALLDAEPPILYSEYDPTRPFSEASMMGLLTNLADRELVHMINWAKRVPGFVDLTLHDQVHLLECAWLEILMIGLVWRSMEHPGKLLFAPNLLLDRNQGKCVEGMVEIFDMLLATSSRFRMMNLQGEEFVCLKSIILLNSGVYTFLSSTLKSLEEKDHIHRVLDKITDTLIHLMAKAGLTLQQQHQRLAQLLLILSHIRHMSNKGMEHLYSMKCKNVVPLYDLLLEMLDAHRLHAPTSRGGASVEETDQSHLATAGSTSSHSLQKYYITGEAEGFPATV
- Assay Explanation: Cotransfection assay, ER agonist
- Recorded Conditions: read-out: ER Potency Agon
pEC50: −log10 of the molar value.

input: Lookup: pEC50 / hER (Homo sapiens, UniProt P03372) / `CC1(C)OC(=O)Nc2ccc3c(c21)COc1c(F)cc(C=NO)cc1-3`
output: < 5.00

input: Lookup: pEC50 / hER (Homo sapiens, UniProt P03372) / `CC1(C)OC(=O)Nc2ccc3c(c21)COc1c(F)cccc1-3`
output: < 5.00

input: Lookup: pEC50 / hER (Homo sapiens, UniProt P03372) / `CC1(C)OC(=O)Nc2ccc3c(c21)COc1c(F)cc(C=O)cc1-3`
output: < 5.00

input: Lookup: pEC50 / hER (Homo sapiens, UniProt P03372) / `CC1(C)OC(=O)Nc2ccc3c(c21)COc1c(F)cc(Br)cc1-3`
output: < 5.00

input: Lookup: pEC50 / hER (Homo sapiens, UniProt P03372) / `CC1(C)OC(=O)Nc2ccc3c(c21)COc1c(F)cc(C#N)cc1-3`
output: < 5.00

input: Lookup: pEC50 / hER (Homo sapiens, UniProt P03372) / CC(C)C(=O)Nc1ccc([N+](=O)[O-])c(C(F)(F)F)c1 [Flut, reference compound]
output: < 5.00

input: Lookup: pEC50 / hER (Homo sapiens, UniProt P03372) / CC(=O)S[C@@H]1CC2=CC(=O)CC[C@]2(C)[C@H]2CC[C@@]3(C)[C@@H](CC[C@@]34CCC(=O)O4)[C@H]12 [Spir, reference compound]
output: < 5.00

----------
- Target System: UniProtKB P06401
- Sequence (P06401 1-933): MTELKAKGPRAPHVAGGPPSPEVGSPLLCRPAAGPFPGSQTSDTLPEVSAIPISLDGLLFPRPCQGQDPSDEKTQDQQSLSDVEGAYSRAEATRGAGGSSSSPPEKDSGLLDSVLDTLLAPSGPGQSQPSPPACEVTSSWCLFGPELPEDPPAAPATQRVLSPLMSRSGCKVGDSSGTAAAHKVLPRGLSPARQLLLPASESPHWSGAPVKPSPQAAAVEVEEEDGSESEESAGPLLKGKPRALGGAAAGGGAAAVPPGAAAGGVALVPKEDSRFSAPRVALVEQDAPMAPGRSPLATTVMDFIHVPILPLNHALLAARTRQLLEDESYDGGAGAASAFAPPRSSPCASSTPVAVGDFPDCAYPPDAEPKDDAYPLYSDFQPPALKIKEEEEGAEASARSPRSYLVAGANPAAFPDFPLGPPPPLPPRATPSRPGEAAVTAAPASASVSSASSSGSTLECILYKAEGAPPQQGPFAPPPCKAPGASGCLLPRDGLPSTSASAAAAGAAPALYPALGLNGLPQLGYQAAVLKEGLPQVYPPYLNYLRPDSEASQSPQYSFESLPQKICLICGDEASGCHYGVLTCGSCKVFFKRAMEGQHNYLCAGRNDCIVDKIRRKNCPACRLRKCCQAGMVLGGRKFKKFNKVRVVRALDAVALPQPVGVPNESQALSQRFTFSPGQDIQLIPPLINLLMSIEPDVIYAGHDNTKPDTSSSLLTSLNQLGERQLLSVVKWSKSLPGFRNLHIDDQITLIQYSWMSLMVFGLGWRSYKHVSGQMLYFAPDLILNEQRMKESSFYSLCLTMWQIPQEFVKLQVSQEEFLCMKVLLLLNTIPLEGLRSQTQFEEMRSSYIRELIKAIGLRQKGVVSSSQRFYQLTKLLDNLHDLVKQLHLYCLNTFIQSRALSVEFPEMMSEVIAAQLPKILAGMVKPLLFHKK
- Assay Explanation: Cotransfection assay, PR antagonist, CV-1 cells
- Assay type: cell-based
- Recorded Conditions: percent maximal response relative to reference antagonist
Kindly supply the reported PR Antagonist CV-1 Cells Efficacy values for the records listed here.
Answer format: numeric, % implied, no suffix.

input: Looking for the measured PR Antagonist CV-1 Cells Efficacy of CC1(C)OC(=O)Nc2ccc3c(c21)COc1c(F)cc(C#N)cc1-3 [Compound 26] , can you help?
output: 68

input: Looking for the measured PR Antagonist CV-1 Cells Efficacy of CC1(C)OC(=O)Nc2ccc3c(c21)COc1c(F)cc(Br)cc1-3 [Compound 20] , can you help?
output: 80

input: Looking for the measured PR Antagonist CV-1 Cells Efficacy of CN(C)c1ccc([C@H]2C[C@]3(C)[C@@H](CC[C@]3(O)CCCO)[C@@H]3CCC4=CC(=O)CCC4=C32)cc1 [ZK299, reference compound] , can you help?
output: 99

input: Looking for the measured PR Antagonist CV-1 Cells Efficacy of CC1(C)OC(=O)Nc2ccc3c(c21)COc1c(F)cccc1-3 [Compound 14] , can you help?
output: 95

input: Looking for the measured PR Antagonist CV-1 Cells Efficacy of CC1(C)OC(=O)Nc2ccc3c(c21)COc1c(F)cc(C=NO)cc1-3 [Compound 25] , can you help?
output: 87

input: Looking for the measured PR Antagonist CV-1 Cells Efficacy of CC1(C)OC(=O)Nc2ccc3c(c21)COc1c(F)cc(C=O)cc1-3 [Compound 24] , can you help?
output: 84
